test: in vivo; settings: female, CD-1, mouse, iv, 5 mg/kg
Metric: Cmax (µM)
The reply should contain only the number, in µM.

## Task For the compound `O=C(Nc1ccc(Cl)c(C(F)(F)F)c1)NC1COC2(CCC2)OC1` , what Cmax is on record?
## Result 6.27

----------
test: in vivo; design: species or system CD-1 female mice; conditions: female, CD-1, mouse, po, 200 mg/kg, F
Metric: bioavailability
Answer as a quantity: numeral, then unit.

## Task Data request, read-out bioavailability, for `O=C(Nc1ccc(Cl)c(C(F)(F)F)c1)NC1COC2(CCC2)OC1`
## Result 25.3%

----------
assay: physchem; conditions: aqueous buffer, kinetic from dmso stock
Measured solubility kinetic at 5 min, listed per entry.

Solved cases below.
Molecular string: O=C(Nc1ccc(Cl)c(C(F)(F)F)c1)NC1CCCCC1
solubility kinetic at 5 min: 55 µM
--
Molecular string: O=C(Nc1ccc(Cl)c(C(F)(F)F)c1)NC1COC2(CCC2)OC1
solubility kinetic at 5 min: > 200 µM
--
Molecular string: CC1(NC(=O)Nc2ccc(Cl)c(C(F)(F)F)c2)CCCCC1
solubility kinetic at 5 min: 12 µM
--
Molecular string: O=C(Nc1ccc(Cl)c(C(F)(F)F)c1)NC1CCC2(CC1)OCCO2
solubility kinetic at 5 min: 112 µM

Pending compound:
## Task # lookup: solubility kinetic at 5 min of `CC1(NC(=O)Nc2ccc(Cl)c(C(F)(F)F)c2)COC2(CCC2)OC1`
## Result 58 µM

----------
system: M. tuberculosis H37Ra; assay: microbe, parasite or virus in culture; type: cell-based, Mycobacterium tuberculosis; details: Mycobacterium tuberculosis, H37RA, read-out: MIC MTB H37Ra
Metric: log10 MIC (log10 of the value in µM)
Parameter value (number): base-10 log of MIC in µM.

Consider the worked cases shown below.
Molecule: O=C(Nc1ccc(Cl)c(C(F)(F)F)c1)NC1CCCC1
log10 MIC: 0.51

Molecule: CC1CCCC(NC(=O)Nc2ccc(Cl)c(C(F)(F)F)c2)C1 (stereo not shown)
log10 MIC: -0.41

## Task Lab note: need log10 MIC with M. tuberculosis H37Ra for entry `CC1(NC(=O)Nc2ccc(F)c(F)c2)CCCC1` , please look it up.
## Result 1.40

## Task GET /values?readout=log10 MIC&system=M. tuberculosis H37Ra&item= `CC1(NC(=O)Nc2ccc(Cl)c(C(F)(F)F)c2)CCCCC1`
## Result -1.00

## Task So what log10 MIC did `O=C(Nc1ccc(Cl)c(C(F)(F)F)c1)NC1(CO)CCCCC1` get with M. tuberculosis H37Ra?
## Result 0.50

## Task Which measured log10 MIC belongs to `O=C(Nc1ccc(Cl)c(C(F)(F)F)c1)NC1CCC1` , tested on M. tuberculosis H37Ra?
## Result 1.40

----------
test system: M. tuberculosis H37Ra; experiment: microbe, parasite or virus in culture; format: cell-based, Mycobacterium tuberculosis; settings: Mycobacterium tuberculosis, H37RA, read-out: MIC MTB H37Ra
Metric: MIC (µM)
Kindly answer with a numeric value in µM, unit omitted.

Look over these answered cases.
Compound: CC1(C)OCC(NC(=O)Nc2ccc(Cl)c(C(F)(F)F)c2)CO1 [Compound 20]
Target entity: M. tuberculosis H37Ra
Units symbol: µM
MIC: 3.13
//
Compound: C#CC1(NC(=O)Nc2ccc(N=[N+]=[N-])cc2)CCCCC1 [Compound 227-p1]
Target entity: M. tuberculosis H37Ra
Units symbol: µM
MIC: 25

Note: attention shifts to another entry.
## Task Any idea what MIC was measured for CC1CCC(NC(=O)Nc2ccc(Cl)c(C(F)(F)F)c2)CC1 (centres unmarked) [Compound 15] ?
## Result 0.39
